Exercise: state measured 5-HT1A % Act @ Max Dose for each of the compounds provided.
# TEST_SYSTEM: 5-HT1A receptor (Homo sapiens)
# Construct: host or cells: CHO cells
# Sequence (P08908 whole entry): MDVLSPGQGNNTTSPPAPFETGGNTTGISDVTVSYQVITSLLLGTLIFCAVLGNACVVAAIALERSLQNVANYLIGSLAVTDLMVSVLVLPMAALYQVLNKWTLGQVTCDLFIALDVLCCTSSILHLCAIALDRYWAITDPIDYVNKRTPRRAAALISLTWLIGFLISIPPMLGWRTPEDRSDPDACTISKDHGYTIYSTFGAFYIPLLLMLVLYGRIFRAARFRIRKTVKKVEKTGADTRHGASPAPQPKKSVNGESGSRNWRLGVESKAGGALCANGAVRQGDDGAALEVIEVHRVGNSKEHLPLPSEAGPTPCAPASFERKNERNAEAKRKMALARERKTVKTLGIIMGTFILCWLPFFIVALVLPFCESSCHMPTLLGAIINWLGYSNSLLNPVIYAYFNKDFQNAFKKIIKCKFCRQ
# PROTOCOL_TEXT: cell-based
# EXPERIMENTAL_CONDITIONS: Ca^2+ flux, agonist
# Procedure: Functional Assays at 5-HT2A, 5-HT2B, and 5-HT1A. Agonist activity at 5-HT2A, 5-HT2B, and 5-HT1A receptors was determined using a FLIPR Ca^2+ flux assay at WuXi AppTec (Hong Kong) Limited according to their standard protocols. […] 10 μL of references and compounds were then transferred from the compound plate into the cell plate and the fluorescent signal was read.

// worked examples, 5-HT1A % Act @ Max Dose included
[
  {
    "COMPOUND": "CC[C@@H](C)NC(=O)[C@@H]1C=C2c3cccc4[nH]cc(c34)C[C@H]2N(CCC(F)(F)F)C1",
    "5-HT1A % Act @ Max Dose": "22.27%"
  },
  {
    "COMPOUND": "CCN(CC)C(=O)[C@@H]1C=C2c3cccc4[nH]c(Br)c(c34)C[C@H]2N(C)C1",
    "5-HT1A % Act @ Max Dose": "−1.58%"
  },
  {
    "COMPOUND": "CCN(CC)C(=O)[C@@H]1C=C2c3cccc4[nH]cc(c34)C[C@H]2N(CCc2ccc(OC)cc2)C1",
    "5-HT1A % Act @ Max Dose": "8.2%"
  },
  {
    "COMPOUND": "CCCN1C[C@H](C(=O)N[C@H](C)CC)C=C2c3cccc4[nH]c(Br)c(c34)C[C@H]21",
    "5-HT1A % Act @ Max Dose": "69.48%"
  },
  {
    "COMPOUND": "CCN(CC)C(=O)[C@@H]1C=C2c3cccc4[nH]cc(c34)C[C@H]2N(CCF)C1",
    "5-HT1A % Act @ Max Dose": "91.21%"
  },
  {
    "COMPOUND": "CCN(CC)C(=O)[C@@H]1C=C2c3cccc4c3C(CN4)C[C@H]2N(C)C1 (mixture of isomers)",
    "5-HT1A % Act @ Max Dose": "108.98%"
  }
]

Now for another entry.
Query string: Lab note: need 5-HT1A % Act @ Max Dose for C[C@H]1C[C@H](C)N1C(=O)[C@@H]1C=C2c3cccc4[nH]cc(c34)C[C@H]2N(CCCF)C1 on 5-HT1A receptor (Homo sapiens), anyone have it?
Result string: 97.94%

###

# PROTOCOL_TEXT: Metabolic stability in rat liver microsomes (RLM)
# EXPERIMENTAL_CONDITIONS: both, rat, pooled rat liver microsomes, pH 7.4
Binary call on microsomal CLint at 1 μM with cut-off 200 µL/min/mg: strictly below means MET, and equality or higher means NOT MET.

These recorded examples may help you get a feel for the data.
[
  {
    "COMPOUND": "CCN(CC)C(=O)[C@@H]1C=C2c3cccc4[nH]cc(c34)C[C@H]2N(CCc2ccccc2OC)C1",
    "CLASSIFICATION": "NOT MET"
  },
  {
    "COMPOUND": "CCN(CC)C(=O)[C@@H]1C=C2c3cccc4[nH]cc(c34)C[C@H]2N(CCCF)C1",
    "CLASSIFICATION": "MET"
  },
  {
    "COMPOUND": "C=CCN1C[C@H](C(=O)N[C@H](C)CC)C=C2c3cccc4[nH]cc(c34)C[C@H]21",
    "CLASSIFICATION": "MET"
  }
]

Query string: Is the reported microsomal CLint at 1 μM for CCN(CC)C(=O)[C@@H]1C=C2c3cccc4[nH]cc(c34)C[C@H]2N(C)C1 [LSD, lysergic acid diethylamide, reference compound] strictly below 200 µL/min/mg?
Result string: MET

Query string: Is the reported microsomal CLint at 1 μM for CCC(CC)NC(=O)[C@@H]1C=C2c3cccc4[nH]cc(c34)C[C@H]2N(C)C1 strictly below 200 µL/min/mg?
Result string: MET

Query string: Is the reported microsomal CLint at 1 μM for CCN(CC)C(=O)[C@@H]1C=C2c3cccc4[nH]cc(c34)C[C@H]2N(Cc2ccccc2O)C1 strictly below 200 µL/min/mg?
Result string: NOT MET

Query string: Is the reported microsomal CLint at 1 μM for CCCN1C[C@H](C(=O)N2[C@@H](C)C[C@@H]2C)C=C2c3cccc4[nH]cc(c34)C[C@H]21 strictly below 200 µL/min/mg?
Result string: MET

###

# TEST_SYSTEM: UniProt:P35348
# Sequence (P35348 whole entry): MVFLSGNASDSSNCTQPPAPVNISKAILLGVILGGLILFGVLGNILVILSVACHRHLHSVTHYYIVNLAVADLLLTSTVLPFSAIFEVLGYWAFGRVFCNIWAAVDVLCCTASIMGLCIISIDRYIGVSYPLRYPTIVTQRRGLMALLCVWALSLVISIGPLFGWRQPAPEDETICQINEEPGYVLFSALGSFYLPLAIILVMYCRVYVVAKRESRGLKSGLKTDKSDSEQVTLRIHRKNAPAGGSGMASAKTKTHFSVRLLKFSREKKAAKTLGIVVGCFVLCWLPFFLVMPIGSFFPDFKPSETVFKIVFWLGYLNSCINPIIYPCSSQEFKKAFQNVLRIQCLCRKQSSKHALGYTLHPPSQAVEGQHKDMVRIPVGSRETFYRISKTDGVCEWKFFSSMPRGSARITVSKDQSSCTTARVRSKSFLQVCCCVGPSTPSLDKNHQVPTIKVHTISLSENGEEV
# PROTOCOL_TEXT: FLIPR Ca^2+ flux agonist assay at Alpha1A
# Type: cell-based
pEC50: −log10 of the molar value.
Please mark 1 if the recorded pEC50 is equal to or greater than 7, and -1 if it falls below.

[
  {
    "COMPOUND": "CCCN1C[C@H](C(=O)N[C@H](C)CC)C=C2c3cccc4[nH]cc(c34)C[C@H]21 [Compound 3]",
    "CLASSIFICATION": 1
  },
  {
    "COMPOUND": "CCCN1C[C@H](C(=O)N(CC)CC)C=C2c3cccc4[nH]cc(c34)C[C@H]21 [Compound 1]",
    "CLASSIFICATION": 1
  },
  {
    "COMPOUND": "CCN(CC)C(=O)[C@@H]1C=C2c3cccc4[nH]cc(c34)C[C@H]2N(CC2CC2)C1 [Compound 13]",
    "CLASSIFICATION": 1
  },
  {
    "COMPOUND": "CCN(CC)C(=O)[C@@H]1C=C2c3cccc4[nH]cc(c34)C[C@H]2N(CCC(F)(F)F)C1 [Compound 12]",
    "CLASSIFICATION": -1
  }
]

Now, please, on to the next compound.
Query string: Textbook exercise: given the entry CCN(CC)C(=O)[C@@H]1C=C2c3cccc4[nH]cc(c34)C[C@H]2N(CCCF)C1 [Compound 2] , state whether its pEC50 is greater than or equal to 7.
Result string: -1

###

# PROTOCOL_TEXT: Metabolic stability in human liver microsomes (HLM)
# Assay type: in vitro ADME
# EXPERIMENTAL_CONDITIONS: 1 μM, 0.50 mg protein per mL
Binary call on t1/2 with cut-off 7 min: strictly below means Fulfilled, and equality or higher means Not fulfilled.

These recorded examples may help you get a feel for the data.
[
  {
    "COMPOUND": "CCN(CC)C(=O)[C@@H]1C=C2c3cccc4[nH]cc(c34)C[C@H]2N(Cc2ccccc2OC)C1 [Compound 10]",
    "CLASSIFICATION": "Not fulfilled"
  },
  {
    "COMPOUND": "CCN(CC)C(=O)[C@@H]1C=C2c3cccc4[nH]cc(c34)C[C@H]2N(CCc2ccccc2OC)C1 [Compound 11]",
    "CLASSIFICATION": "Fulfilled"
  },
  {
    "COMPOUND": "C=CCN1C[C@H](C(=O)N[C@H](C)CC)C=C2c3cccc4[nH]cc(c34)C[C@H]21 [Compound 8]",
    "CLASSIFICATION": "Not fulfilled"
  }
]

Query string: Is the reported t1/2 for CC[C@@H](C)NC(=O)[C@H]1C=C2c3cccc4[nH]cc(c34)C[C@H]2N(C)C1 [Int8a] strictly below 7 min?
Result string: Not fulfilled

###

# TEST_SYSTEM: D1 receptor (Homo sapiens, UniProt P21728)
# Sequence (P21728 whole entry): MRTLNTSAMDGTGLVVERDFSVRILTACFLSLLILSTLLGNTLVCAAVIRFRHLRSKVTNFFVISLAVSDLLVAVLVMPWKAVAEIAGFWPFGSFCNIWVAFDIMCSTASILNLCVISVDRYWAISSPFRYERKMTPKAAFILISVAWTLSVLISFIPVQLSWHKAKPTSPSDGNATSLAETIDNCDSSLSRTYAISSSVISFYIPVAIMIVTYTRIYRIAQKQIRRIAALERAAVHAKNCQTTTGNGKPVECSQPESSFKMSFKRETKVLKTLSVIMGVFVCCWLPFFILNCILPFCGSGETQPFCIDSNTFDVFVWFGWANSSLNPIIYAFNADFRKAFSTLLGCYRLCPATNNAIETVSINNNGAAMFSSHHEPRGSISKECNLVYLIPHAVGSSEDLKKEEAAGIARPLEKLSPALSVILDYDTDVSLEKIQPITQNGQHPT
# PROTOCOL_TEXT: FLIPR Ca^2+ flux agonist assay at D1
# Type: cell-based
Exercise: state measured EC50 for each of the compounds provided.
Express the reported value numerically, then name its unit.

// worked examples, EC50 included
[
  {
    "COMPOUND": "CCCN1C[C@H](C(=O)N2[C@@H](C)C[C@@H]2C)C=C2c3cccc4[nH]cc(c34)C[C@H]21",
    "TEST_SYSTEM": "D1 receptor (Homo sapiens, UniProt P21728)",
    "EC50": "81.8 nM"
  },
  {
    "COMPOUND": "CCN(CC)C(=O)[C@@H]1C=C2c3cccc4[nH]cc(c34)C[C@H]2N(CCCF)C1",
    "TEST_SYSTEM": "D1 receptor (Homo sapiens, UniProt P21728)",
    "EC50": "86.4 nM"
  },
  {
    "COMPOUND": "CCCN1C[C@H](C(=O)NC(CC)CC)C=C2c3cccc4[nH]cc(c34)C[C@H]21",
    "TEST_SYSTEM": "D1 receptor (Homo sapiens, UniProt P21728)",
    "EC50": "18.1 nM"
  },
  {
    "COMPOUND": "CCCN1C[C@H](C(=O)N(CC)CC)C=C2c3cccc4[nH]cc(c34)C[C@H]21",
    "TEST_SYSTEM": "D1 receptor (Homo sapiens, UniProt P21728)",
    "EC50": "4.64 nM"
  },
  {
    "COMPOUND": "CCCN1C[C@H](C(=O)N[C@H](C)CC)C=C2c3cccc4[nH]cc(c34)C[C@H]21",
    "TEST_SYSTEM": "D1 receptor (Homo sapiens, UniProt P21728)",
    "EC50": "47.9 nM"
  }
]

Query string: Requested read-out: EC50. Entry: CCN(CC)C(=O)[C@@H]1C=C2c3cccc4[nH]cc(c34)C[C@H]2N(C)C1 [LSD, lysergic acid diethylamide, reference compound]
Result string: 4.87 nM
